# Tested on: C. elegans
# TEST_SUMMARY: microbe, parasite or virus in culture
# ASSAY_CONTEXT: Caenorhabditis elegans, 24 h, read-out: Percentage of motility inhibition 24 h, Table S2, C. elegans SS assay, 110 μM, 24 h, averages of 4 data points
Would you mind labelling by inhibition at 110 µM? At or over 10% is YES, under is NO.

{"COMPOUND_STRUCTURE_STRING": "C=C1[C@@H]2CC[C@@H]3[C@](C2)(C(=O)[C@@H](O)[C@@H]2C(C)(C)[C@H]4CC(=O)[C@@]32CO4)[C@@H]1OC(C)=O", "GROUP": "NO"}
{"COMPOUND_STRUCTURE_STRING": "C/C1=C\\CCC2=C[C@@H](OC2=O)c2c(C)coc2C1", "GROUP": "YES"}
{"COMPOUND_STRUCTURE_STRING": "c1cncc([C@@H]2CCCCN2)c1", "GROUP": "NO"}
{"COMPOUND_STRUCTURE_STRING": "C[C@H](CCC(=O)O)[C@H]1CC[C@H]2[C@@H]3CC[C@@H]4C[C@H](O)CC[C@]4(C)[C@H]3C[C@H](O)[C@]12C", "GROUP": "YES"}
{"COMPOUND_STRUCTURE_STRING": "C=C[C@H]1CN2CC[C@H]1C[C@H]2[C@H](O)c1ccnc2ccccc12", "GROUP": "NO"}

---

# Tested on: C. elegans
# ASSAY_CONTEXT: Table S2, C. elegans SS assay, 110 μM, 0 h, averages of 4 data points

{"MOLECULE": "C[C@H]1O[C@@H](O[C@H]2CC[C@@]3(C)[C@@H](CC[C@]4(C)[C@@H]3C=CC3=C5CC(C)(C)CC[C@]5(CO)[C@@H](O)C[C@]34C)[C@]2(C)CO)[C@H](O[C@@H]2O[C@H](CO)[C@@H](O)[C@H](O)[C@H]2O)[C@@H](O[C@@H]2O[C@H](CO)[C@@H](O)[C@H](O)[C@H]2O)[C@H]1O", "Percentage of motility inhibition 0 h / %": 0}
{"MOLECULE": "CC1CCC(C(C)C)C(O)C1 (racemic) [DL-Menthol]", "Percentage of motility inhibition 0 h / %": 27}
{"MOLECULE": "O.O=C1C=CC[C@@H]2[C@H]3CCCN4CCC[C@@H](CN12)[C@@H]34 [Sophocarpine (monohydrate)]", "Percentage of motility inhibition 0 h / %": 0}
{"MOLECULE": "COc1ccnc2[nH]cc(C(=O)C(=O)N3CCN(C(=O)c4ccccc4)C[C@H]3C)c12", "Percentage of motility inhibition 0 h / %": 47}
{"MOLECULE": "COc1ccc2c(c1OC)C(OC)N(C)c1c-2ccc2cc3c(cc12)OCO3 (stereo not drawn)", "Percentage of motility inhibition 0 h / %": 0}
{"MOLECULE": "CC(C)[C@@H]1[C@H]2OC(=O)[C@@H]1[C@@H]1CC[C@@H]3CN(C)[C@H]2[C@@]31C", "Percentage of motility inhibition 0 h / %": 0}

---

# System: C. elegans
# TEST_SUMMARY: microbe, parasite or virus in culture
# ASSAY_CONTEXT: Caenorhabditis elegans, 0 h, read-out: Percentage of motility inhibition 0 h, Table S2, C. elegans SS assay, 110 μM, 0 h, averages of 4 data points
Below, each entry is listed with its recorded inhibition at 110 µM.
ENDPOINT: inhibition at 110 µM (%)

{"COMPOUND_STRUCTURE_STRING": "C[C@@]12CC[C@@H]3[C@@](CC[C@H]4[C@@]3(C)CCC[C@@]4(C)C(=O)O)(CC1=O)C2", "OBSERVED_MEASUREMENT": 0}
{"COMPOUND_STRUCTURE_STRING": "CSc1ccc(OCc2ncc([N+](=O)[O-])n2C)cc1", "OBSERVED_MEASUREMENT": 11}
{"COMPOUND_STRUCTURE_STRING": "C=C1C(=O)[C@@]23[C@@H]4OC5O[C@@]2(O)[C@@H](O)[C@@H]2C(C)(C)CC[C@@H](O)[C@]52[C@@H]3CC[C@@H]14", "OBSERVED_MEASUREMENT": 4}
{"COMPOUND_STRUCTURE_STRING": "O=c1cc(-c2ccccc2)oc2ccccc12", "OBSERVED_MEASUREMENT": 0}
{"COMPOUND_STRUCTURE_STRING": "C=C1C(=O)O[C@@H]2C[C@@]3(C)CCCC(=C)[C@@H]3C[C@H]12", "OBSERVED_MEASUREMENT": 2}
{"COMPOUND_STRUCTURE_STRING": "O=c1[nH]cnc2c1ncn2[C@@H]1O[C@H](CO)[C@@H](O)[C@H]1O", "OBSERVED_MEASUREMENT": 34}
